# Tested on: SR
# Run Description: NCI tumour cell line growth inhibition, 48 h
Active and inactive are the calls of the source. No stated cut-off is given here; in the data, active = GI50 up to about 1.1 µM and inactive = higher.
Can you answer with just one of these options? TRUE = active, FALSE = inactive

Previously resolved entries follow.
NCCN(CCN(C(=O)Nc1ccccc1)c1ccccc1)C(=O)Nc1ccccc1	FALSE
CCC(C)C1NC(=O)C(NC(=O)C(CC(C)C)N(C)C(=O)[C@@H]2C=CCN2C(=O)[C@H](C)O)C(C)OC(=O)[C@H](Cc2ccc(OC)cc2)N(C)C(=O)[C@@H]2CCCN2C(=O)[C@H](CC(C)C)NC(=O)C(C)C(=O)[C@H](C(C)C)OC(=O)CC1O (stereo partly specified)	TRUE

[in] Can you look up the reported call for C/C(=N\NC(=O)/C(C#N)=C\c1ccc(N(CCC#N)CCC#N)cc1)c1ccccc1 for me?
[out] FALSE

###

# Tested on: A498
# Run Description: NCI tumour cell line growth inhibition, 48 h
Active and inactive are the calls of the source. No stated cut-off is given here; in the data, active = GI50 up to about 1.1 µM and inactive = higher.
Assay Readout: GI50

// known answers, use as guide
CCOC(=O)NC(OC)(C(F)(F)F)C(F)(F)F	> 100 µM (inactive)
CN(C)/N=N/c1ccc([N+](=O)[O-])cc1C(N)=O	> 80.9 µM (inactive)
CCOC1OCCCC1Br (stereo unspecified)	> 100 µM (inactive)
COc1cc(C(Cc2ccccc2)NC(C)=O)oc(=O)c1 (stereo unspecified)	> 100 µM (inactive)
COc1cc(O)c2c(=O)cc(C3(OC(C)=O)C=CC(OC4OC(CO)C(O)C(O)C4O)C=C3)oc2c1 (stereo unspecified)	> 100 µM (inactive)

Consider the following items and state reported GI50 for each.
1. [N-]=[N+]=CC(=O)OCC1SCCCS1
2. Clc1sc(Cl)c2c1[C@@H](Cl)C[C@@H]2Cl
3. CC1CNC(NS(=O)(=O)c2cc(C(=O)Nc3ccc(Cl)cc3)c(Cl)cc2S)=NN1 (stereo unspecified)
4. C/C(=N\NC(N)=O)c1sc(-c2nc(C)c(/C(C)=N/NC(N)=O)s2)nc1C
5. CC(=O)N1c2ccccc2Sc2cc(C(O)(C(F)(F)F)C(F)(F)F)ccc21
6. c1ccc(/N=C2\c3ccccc3CN2c2ccccn2)nc1

[out]
> 100 µM (inactive)
> 100 µM (inactive)
18.1 µM (inactive)
> 100 µM (inactive)
> 10 µM (inactive)
> 100 µM (inactive)

###

# Test system: DU-145
# Run Description: NCI tumour cell line growth inhibition, 48 h
Active and inactive are the calls of the source. Cut-off read from the data, not from the text of the source: active = GI50 up to about 1.1 µM and inactive = higher.
Record form. Attribute: GI50. Fill in for each entry.

// known answers, use as guide
NC1CCN(c2nc3ccccc3c3c2CCCC3)CC1	11.9 µM (inactive)
CCOC(=O)c1ccc2nc3n(c2c1)C(c1c(F)cccc1F)SC3 (configuration not stated)	> 100 µM (inactive)
CCc1n[nH]c(=O)n1-n1c(C)ccc1C	> 100 µM (inactive)
O=C(O)CCCn1nnc2c(=O)[nH][nH]c(=O)c21	> 100 µM (inactive)
COc1cc(O)c2c(=O)cc(C3(OC(C)=O)C=CC(OC4OC(CO)C(O)C(O)C4O)C=C3)oc2c1 (configuration not stated)	> 100 µM (inactive)
CC/C=C/c1cc2c(cc1O)CCC1C2CC[C@@]2(C)C1CC[C@@H]2O (some centres not stated)	2.76 µM (inactive)

Consider the following items and state reported GI50 for each.
1. Clc1cc(C(c2cc(Cl)sc2Cl)c2cc(Cl)sc2Cl)c(Cl)s1
2. O=C1OC([C@H](O)c2cccnc2)c2ccccc21 (some centres not stated)

[out]
1: > 100 µM (inactive); 2: > 10 µM (inactive)

###

# Tested on: OVCAR-4
# Run Description: NCI tumour cell line growth inhibition, 48 h
Active and inactive are the calls of the source. Rule as the data show it: active = GI50 up to about 1.1 µM and inactive = higher.
Can you answer with just one of these options? 1 for active, 0 for inactive

O=c1[nH]nc(Cn2c3ccc(Br)cc3c3nc4ccccc4nc32)n1C1CCCCC1	0

[in] Can you look up the reported call for C=C1C(=O)O[C@@H]2[C@H]3O[C@]3(C)CCC=C(C)CC[C@@H]12 for me?
[out] 0

[in] Can you look up the reported call for CCCSc1cc(Cl)c(C)cc1S(=O)(=O)n1ccnc1O for me?
[out] 0

[in] Can you look up the reported call for COc1cccc([C@H]2C/C(=N\NC(=O)C(=O)N[C@@H](C)c3ccccc3)c3ccccc3N2)c1 for me?
[out] 0

[in] Can you look up the reported call for CC(=O)Nc1ccc(C(=O)N2N=C(C)/C(=C/c3ccccc3O)C2=O)cc1 for me?
[out] 0

[in] Can you look up the reported call for N=C(N)N/N=C/c1c(-c2ccc(Cl)cc2)nc2sc(Cl)cn12 for me?
[out] 1

[in] Can you look up the reported call for C=C1c2nc3ccccc3n2C=C(c2ccccc2)N1c1ccc([N+](=O)[O-])cc1 for me?
[out] 1

[in] Can you look up the reported call for COc1cc(C(Cc2ccccc2)NC(C)=O)oc(=O)c1 (centres undefined) for me?
[out] 0

[in] Can you look up the reported call for C=CC[C@@]1(C#N)C[C@H](C[C@]2(C#N)C[C@H](CCl)OC(C)(C)O2)OC(C)(C)O1 for me?
[out] 0

###

Record form. Attribute: GI50. Fill in for each entry.
# Test system: MDA-N
# Run Description: NCI tumour cell line growth inhibition, 48 h
The source made the active and inactive calls. Rule as the data show it: active = GI50 up to about 1.1 µM and inactive = higher.

Clc1ccc(-c2nc3ccc4ccccc4c3c3c2CCCC3)cc1	> 100 µM (inactive)

Consider the following items and state reported GI50 for each.
1. COc1cc(S(=O)(=O)Nc2nc(-c3ccc(N4C(=O)CSC4c4cccs4)cc3)cs2)ccc1Cl (stereo unspecified)
2. O=[N+]([O-])/C=C/c1cc(Cl)c(/C=C/[N+](=O)[O-])cc1Cl
3. CCOC1OCCCC1Br (stereo unspecified)
4. COc1ccc(/C=C2\C=Cc3ccccc32)cc1OC
5. CC(=O)NC1C(OCc2ccccc2)OC(CO)C(O)C1OCC(=O)N[C@@H](C)C(=O)N[C@H](CCC(=O)NCCCNc1ccc([N+](=O)[O-])c2[nH]c3ccccc3c(=O)c12)C(N)=O (stereo partly specified)

[out]
["43.4 µM (inactive)", "2.27 µM (inactive)", "> 100 µM (inactive)", "> 100 µM (inactive)", "> 100 µM (inactive)"]

Consider the following items and state reported GI50 for each.
1. COc1ccc(/C=C2\C[C@H]3[C@@H]4CCC5=CC(=O)CC[C@]5(C)[C@H]4CC[C@]3(C)C2=O)cc1OC
2. O=C1NC(=S)N(c2cccc3ccccc23)C(=O)/C1=C/c1c[nH]c2ccccc12
3. Brc1ccc2c(c1)-c1nc3nc4c(cc3cc1CC2)CCc1ccc(Br)cc1-4
4. CN(C)c1ccc(C2CC(C)(O)Oc3cc4c(cc32)OCO4)cc1 (stereo unspecified)
5. COC(=O)Cc1c([C@@H]2Nc3ccccc3[C@H]2CC(=O)OC)[nH]c2ccccc12
6. Nc1c(C(=O)O)nnc2ccc(Cl)cc12
7. CCCCCCCCCCCCCCCCCCNc1ccn(C2OC(COP(=O)(O)OCC3OC(n4cc(C)c(=O)[nH]c4=O)CC3N=[N+]=[N-])C(O)C2O)c(=O)n1 (stereo unspecified)
8. CCOC(=O)/C=C(\C(=O)OCC)n1cc(Cl)c(=O)n(CC(=O)OCC)c1=O

[out]
5.94 µM (inactive)
2.1 µM (inactive)
> 100 µM (inactive)
18.6 µM (inactive)
28.7 µM (inactive)
> 100 µM (inactive)
43.7 µM (inactive)
11.3 µM (inactive)

Consider the following items and state reported GI50 for each.
1. NCCOc1ccccn1
2. O=C(/C=C/c1ccc(O)c(O)c1)OCCCOC(=O)/C=C/c1ccc(O)c(O)c1

[out]
1. > 100 µM (inactive)
2. 17.5 µM (inactive)

###

Record form. Attribute: GI50. Fill in for each entry.
# System: SNB-75
# Run Description: NCI tumour cell line growth inhibition, 48 h
Activity calls are given as the source filed them. Cut-off read from the data, not from the text of the source: active = GI50 up to about 1.1 µM and inactive = higher.

// known answers, use as guide
CCCOC(=O)c1cc(C(=CCC[C@H]2CC[C@@]3(C)[C@@H](CC[C@@H]4[C@@H]3CC[C@]3(C)[C@@H](C(C)CCCC(C)C)CC[C@@H]43)C2)c2cc(Cl)c(O)c(C(=O)OCCC)c2)cc(Cl)c1O (some centres undefined)	> 50 µM (inactive)
COC[C@@H](Cc1ccc(OC)c(OC)c1)[C@@H](COC)Cc1ccc(OC)c(OC)c1	> 100 µM (inactive)
CC1(C)N=c2[nH]cnc2=C(C(N)=O)N1	> 100 µM (inactive)

Next item in the queue.
[in] Which measured GI50 belongs to CCOC(=O)c1oc2c(OC)cc(Cl)c3c2c1CCC3 , tested on SNB-75?
[out] 26.2 µM (inactive)

###

# Tested on: HCT-116
# Run Description: NCI tumour cell line growth inhibition, 48 h
Activity calls are given as the source filed them. No stated cut-off is given here; in the data, active = GI50 up to about 1.1 µM and inactive = higher.
Assay Readout: GI50

// known answers, use as guide
O=C(Nc1cccc(C(=O)NCCCO)c1)/C(=C/c1ccccc1)NC(=O)c1ccccc1	> 100 µM (inactive)
CCc1n[nH]c(=O)n1-n1c(C)ccc1C	> 100 µM (inactive)
COC(=O)Cc1c([C@@H]2Nc3ccccc3[C@H]2CC(=O)OC)[nH]c2ccccc12	38.9 µM (inactive)

Consider the following items and state reported GI50 for each.
1. Nc1nc(Nc2ccc(Cl)cc2)sc1C(=O)c1cc2ccccc2oc1=O
2. O=C1NC(=S)N(c2cccc3ccccc23)C(=O)/C1=C/c1c[nH]c2ccccc12
3. Cc1c(N2C(=O)C(Cl)C2c2ccc(Cl)cc2)c(=O)n(-c2ccccc2)n1C (stereo not given)
4. O=C(CCCn1ccnc1[N+](=O)[O-])NCCn1cnc([N+](=O)[O-])c1
5. COC(=O)C(C(=O)C(=O)Nc1ccc(C)cc1C)c1csc(-n2nc(-c3ccccc3)cc2-c2ccccc2)n1 (stereo not given)

[out]
1: 23.1 µM (inactive); 2: 2.01 µM (inactive); 3: 18.8 µM (inactive); 4: > 100 µM (inactive); 5: 58.1 µM (inactive)

Consider the following items and state reported GI50 for each.
1. CC(=O)OC1CCC2OOC1O2 (stereo not given)
2. CCOC(=O)c1cc(C)n(CN(CCO)Cn2nc(C(=O)OCC)cc2C)n1
3. O=[N+]([O-])c1ccc2c(/N=N/c3c(O)ccc4ccccc34)c(O)cc(S(=O)(=O)O)c2c1
4. [O-][S+](Nc1ccccc1)c1cccc(Cl)c1 (stereo not given)
5. O=c1c2ccccc2[nH]n1Cc1ccccc1
6. COc1cccc(/C=C/C(=O)N2CC(CCl)c3c2cc(N)c2ccccc32)c1 (stereo not given)
7. COCn1c(C)c(C)c2c(=O)oc(=O)[nH]c21

[out]
["> 100 µM (inactive)", "18.3 µM (inactive)", "14.4 µM (inactive)", "45.2 µM (inactive)", "> 100 µM (inactive)", "0.00109 µM (active)", "> 100 µM (inactive)"]

Consider the following items and state reported GI50 for each.
1. O=[N+]([O-])/C=C/c1cc(Cl)c(/C=C/[N+](=O)[O-])cc1Cl
2. NC(=S)N/N=C\CC(O)(C(F)(F)F)C(F)(F)F
3. Cc1ccc(S(=O)(=O)c2ccc(N)cc2)cc1
4. COc1cc(OC)c(/C=C2\N=C(C)N(Nc3nnc(NN4C(=O)/C(=C/c5c(OC)cc(OC)cc5OC)N=C4C)c4ccccc34)C2=O)c(OC)c1
5. NC1=NCN(C2OC(CO)C(O)C2O)C(=O)N1 (stereo not given)
6. Cc1ccc(-n2cc(-c3ccc(Cl)cc3)c3c2N=CN2N=C(c4cccs4)NC32)cc1 (stereo not given)

[out]
1. 1.12 µM (active)
2. > 10 µM (inactive)
3. > 100 µM (inactive)
4. > 100 µM (inactive)
5. 16.6 µM (inactive)
6. 5.13 µM (inactive)

Consider the following items and state reported GI50 for each.
1. COc1cc2c(c(OC)c1OC)[C@@H]1CCCCC[C@@H]1CCC2=O
2. CC(C)(C)C(=O)Nc1cccc(-c2ccc[nH]2)n1
3. Cc1cc(O)c(C(C)C)cc1C1(c2cc(C(C)C)c(O)cc2C)OC(=O)c2ccccc21
4. O=C(OCCOCBr)c1ccccc1

[out]
1: 57.1 µM (inactive); 2: > 100 µM (inactive); 3: 1.67 µM (inactive); 4: > 100 µM (inactive)
